Sequence of the target: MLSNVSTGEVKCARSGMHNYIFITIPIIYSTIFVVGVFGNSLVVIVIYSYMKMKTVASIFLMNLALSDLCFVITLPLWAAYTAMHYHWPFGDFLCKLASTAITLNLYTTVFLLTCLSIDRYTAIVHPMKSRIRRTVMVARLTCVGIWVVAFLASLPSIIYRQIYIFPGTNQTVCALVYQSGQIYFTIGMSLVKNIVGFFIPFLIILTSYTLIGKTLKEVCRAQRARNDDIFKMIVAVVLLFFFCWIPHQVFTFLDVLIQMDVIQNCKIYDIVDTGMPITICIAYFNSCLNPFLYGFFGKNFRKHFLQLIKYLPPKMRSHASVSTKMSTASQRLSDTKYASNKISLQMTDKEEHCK
pKi: −log10 of the molar value.
readout: pKi

Qu. What pKi value was documented for this compound, COc1cc(COc2cc(N)c(Cl)cc2C(=O)CCC2CCN(CCNS(C)(=O)=O)CC2)cc(OC)c1 ?
Ans. < 5.00

---

tested.system: Alpha-1A adrenergic receptor (Homo sapiens, UniProt P35348)
Sequence (P35348 whole entry): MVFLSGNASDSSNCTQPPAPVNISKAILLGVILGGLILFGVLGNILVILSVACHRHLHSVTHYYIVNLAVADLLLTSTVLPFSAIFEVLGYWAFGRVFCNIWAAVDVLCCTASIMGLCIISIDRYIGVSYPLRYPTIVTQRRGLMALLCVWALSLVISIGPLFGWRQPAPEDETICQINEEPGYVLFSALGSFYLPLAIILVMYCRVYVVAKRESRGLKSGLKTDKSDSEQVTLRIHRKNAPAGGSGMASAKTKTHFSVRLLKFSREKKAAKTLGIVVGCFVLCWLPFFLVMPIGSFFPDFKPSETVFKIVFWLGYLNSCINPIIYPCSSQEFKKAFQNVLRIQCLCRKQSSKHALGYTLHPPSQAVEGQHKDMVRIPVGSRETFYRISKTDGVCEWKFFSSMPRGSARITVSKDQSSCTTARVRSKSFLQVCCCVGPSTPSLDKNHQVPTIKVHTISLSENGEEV
readout: pKi
The value called pKi is obtained by taking minus log10 of the concentration in mol/L.

Qu. # pKi lookup, item COc1cc(COc2cc(N)c(Cl)cc2C(=O)CCC2CCN(CCNS(C)(=O)=O)CC2)cc(OC)c1
Ans. 6.40

---

Target protein (sequence): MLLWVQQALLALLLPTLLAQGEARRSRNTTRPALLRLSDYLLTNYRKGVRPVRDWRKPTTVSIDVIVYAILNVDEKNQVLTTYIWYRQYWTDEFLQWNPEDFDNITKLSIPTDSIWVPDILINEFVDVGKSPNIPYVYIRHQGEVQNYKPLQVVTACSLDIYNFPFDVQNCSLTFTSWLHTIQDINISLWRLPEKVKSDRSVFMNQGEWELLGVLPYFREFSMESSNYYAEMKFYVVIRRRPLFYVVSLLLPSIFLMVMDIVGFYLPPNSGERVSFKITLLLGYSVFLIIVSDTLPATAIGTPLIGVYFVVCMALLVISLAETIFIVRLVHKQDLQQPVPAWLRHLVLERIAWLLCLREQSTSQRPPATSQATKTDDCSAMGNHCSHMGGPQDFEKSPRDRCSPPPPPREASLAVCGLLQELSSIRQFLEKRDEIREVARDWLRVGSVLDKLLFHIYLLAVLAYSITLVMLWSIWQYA
readout: Ki (nM)
Quick reminder: number only, in nM, skip the unit.

Qu. Endpoint output: Ki of COc1cc(COc2cc(N)c(Cl)cc2C(=O)CCC2CCN(CCNS(C)(=O)=O)CC2)cc(OC)c1 . Value?
Ans. 1000

---

Target sequence: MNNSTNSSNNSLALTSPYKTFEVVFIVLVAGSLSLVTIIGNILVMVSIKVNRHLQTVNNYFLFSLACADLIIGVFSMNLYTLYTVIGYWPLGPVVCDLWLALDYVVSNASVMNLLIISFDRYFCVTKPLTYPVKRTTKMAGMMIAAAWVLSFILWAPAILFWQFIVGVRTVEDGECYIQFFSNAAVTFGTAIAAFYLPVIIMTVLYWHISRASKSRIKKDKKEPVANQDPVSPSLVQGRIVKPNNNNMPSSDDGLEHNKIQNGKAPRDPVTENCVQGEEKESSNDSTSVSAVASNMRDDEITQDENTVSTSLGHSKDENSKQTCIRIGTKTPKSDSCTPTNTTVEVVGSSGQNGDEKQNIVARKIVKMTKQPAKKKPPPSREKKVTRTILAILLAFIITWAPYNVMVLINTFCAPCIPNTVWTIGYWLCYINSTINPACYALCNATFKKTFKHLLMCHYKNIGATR
readout: pKi
FYI, pKi means -log10 of a concentration in mol per litre.

Qu. Given COc1cc(COc2cc(N)c(Cl)cc2C(=O)CCC2CCN(CCNS(C)(=O)=O)CC2)cc(OC)c1 [CAS_167710-87-4] , state its recorded pKi.
Ans. 6.00

---

tested.system: Mu-type opioid receptor (Rattus norvegicus)
Sequence (P33535 whole entry): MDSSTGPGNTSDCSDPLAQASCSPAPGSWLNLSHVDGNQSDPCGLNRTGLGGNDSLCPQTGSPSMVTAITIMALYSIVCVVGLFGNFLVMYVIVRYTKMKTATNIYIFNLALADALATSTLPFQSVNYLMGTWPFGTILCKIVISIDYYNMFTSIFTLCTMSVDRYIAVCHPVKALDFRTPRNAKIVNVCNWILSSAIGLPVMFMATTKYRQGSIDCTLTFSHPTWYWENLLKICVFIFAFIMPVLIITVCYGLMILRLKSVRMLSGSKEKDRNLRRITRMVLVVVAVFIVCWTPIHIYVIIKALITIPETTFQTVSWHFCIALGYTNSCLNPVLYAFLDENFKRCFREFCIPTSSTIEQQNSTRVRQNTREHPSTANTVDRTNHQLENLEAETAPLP
readout: pKi
Note on units: pKi is unitless, being -log10 of a concentration expressed in mol/L.

Qu. Which pKi reading was recorded for the compound COc1cc(COc2cc(N)c(Cl)cc2C(=O)CCC2CCN(CCNS(C)(=O)=O)CC2)cc(OC)c1 ?
Ans. 6.00

---

tested.system: 5-hydroxytryptamine receptor 4 (Cavia porcellus)
Sequence (O70528 whole entry): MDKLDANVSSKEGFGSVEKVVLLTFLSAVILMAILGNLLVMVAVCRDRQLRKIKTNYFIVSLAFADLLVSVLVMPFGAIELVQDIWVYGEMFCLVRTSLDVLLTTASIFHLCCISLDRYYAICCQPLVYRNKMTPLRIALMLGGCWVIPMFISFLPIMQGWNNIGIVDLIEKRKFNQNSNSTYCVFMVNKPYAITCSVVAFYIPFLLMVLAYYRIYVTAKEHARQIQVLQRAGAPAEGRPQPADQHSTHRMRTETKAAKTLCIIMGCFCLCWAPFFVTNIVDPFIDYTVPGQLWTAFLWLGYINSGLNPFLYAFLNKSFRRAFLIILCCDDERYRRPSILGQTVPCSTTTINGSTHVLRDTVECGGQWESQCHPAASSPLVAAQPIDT
readout: pKi
Just so you know, pKi here is -log10 of the concentration in molar units; reply with that number alone.

Qu. Missing value: pKi, 5-hydroxytryptamine receptor 4 (Cavia porcellus), entry COc1cc(COc2cc(N)c(Cl)cc2C(=O)CCC2CCN(CCNS(C)(=O)=O)CC2)cc(OC)c1 [CAS_167710-87-4] . Fill in?
Ans. 9.10

---

tested.system: 5-hydroxytryptamine receptor 2C (Homo sapiens, UniProt P28335)
Sequence (P28335 whole entry): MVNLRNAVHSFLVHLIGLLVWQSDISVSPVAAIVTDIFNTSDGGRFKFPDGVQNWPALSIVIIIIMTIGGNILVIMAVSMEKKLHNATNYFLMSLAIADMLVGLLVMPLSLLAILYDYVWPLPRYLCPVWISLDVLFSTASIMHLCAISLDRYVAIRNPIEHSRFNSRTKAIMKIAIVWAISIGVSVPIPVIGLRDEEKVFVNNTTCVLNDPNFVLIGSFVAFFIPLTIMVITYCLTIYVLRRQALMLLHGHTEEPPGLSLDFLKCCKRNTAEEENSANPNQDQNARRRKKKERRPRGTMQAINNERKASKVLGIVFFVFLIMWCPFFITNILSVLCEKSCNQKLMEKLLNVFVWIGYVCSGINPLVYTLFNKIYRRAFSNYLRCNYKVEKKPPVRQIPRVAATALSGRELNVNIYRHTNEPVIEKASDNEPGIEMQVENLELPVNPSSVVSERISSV
readout: Ki (nM)
Give your result in nM as a bare value.

Qu. Could you share which Ki value was measured for COc1cc(COc2cc(N)c(Cl)cc2C(=O)CCC2CCN(CCNS(C)(=O)=O)CC2)cc(OC)c1 [CAS_167710-87-4] ?
Ans. 794
